Origin of the recorded values: ChEMBL document CHEMBL1132930

# targetDesc: UniProt:Q9JI35
# Sequence (Q9JI35 whole entry): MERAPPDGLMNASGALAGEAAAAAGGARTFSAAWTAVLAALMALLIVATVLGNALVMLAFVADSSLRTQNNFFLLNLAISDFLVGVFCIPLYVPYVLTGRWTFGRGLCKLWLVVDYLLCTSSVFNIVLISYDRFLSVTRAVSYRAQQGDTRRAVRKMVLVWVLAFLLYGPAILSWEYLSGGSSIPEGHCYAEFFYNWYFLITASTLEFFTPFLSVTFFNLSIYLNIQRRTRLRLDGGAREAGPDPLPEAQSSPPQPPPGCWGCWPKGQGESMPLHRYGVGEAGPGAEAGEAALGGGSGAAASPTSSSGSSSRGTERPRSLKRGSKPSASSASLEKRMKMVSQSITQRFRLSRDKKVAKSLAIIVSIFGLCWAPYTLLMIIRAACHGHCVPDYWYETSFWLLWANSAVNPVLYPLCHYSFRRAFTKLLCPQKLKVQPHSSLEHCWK
# testName: In vitro histamine H3 receptor antagonist activity was determined on guinea pig jejunum
# Type: functional, tissue-based
# conditionSummary: read-out: pA2 (converted)
experimentalReadout: Kb (nM)
// return numeric value only (unit: nM, not printed)

// solved cases for Kb follow
{"columns": ["compoundStructureString", "targetDesc", "Kb [nM]"],
 "data": [
  ["S=C(NCc1ccc(Br)cc1)N1CCC(c2c[nH]cn2)CC1", "UniProt:Q9JI35", 339],
  ["Cc1ccccc1C/N=C(\\S)N1CCC(c2c[nH]cn2)CC1", "UniProt:Q9JI35", 95.5]
]}

[Q] Identify Kb associated with the compound S=C(NCc1cccc(Br)c1)N1CCC(c2c[nH]cn2)CC1
[A] 33.9
